target.or.system: Albumin (Bos taurus) (UniProt P02769)
Sequence (P02769 whole entry, looked up): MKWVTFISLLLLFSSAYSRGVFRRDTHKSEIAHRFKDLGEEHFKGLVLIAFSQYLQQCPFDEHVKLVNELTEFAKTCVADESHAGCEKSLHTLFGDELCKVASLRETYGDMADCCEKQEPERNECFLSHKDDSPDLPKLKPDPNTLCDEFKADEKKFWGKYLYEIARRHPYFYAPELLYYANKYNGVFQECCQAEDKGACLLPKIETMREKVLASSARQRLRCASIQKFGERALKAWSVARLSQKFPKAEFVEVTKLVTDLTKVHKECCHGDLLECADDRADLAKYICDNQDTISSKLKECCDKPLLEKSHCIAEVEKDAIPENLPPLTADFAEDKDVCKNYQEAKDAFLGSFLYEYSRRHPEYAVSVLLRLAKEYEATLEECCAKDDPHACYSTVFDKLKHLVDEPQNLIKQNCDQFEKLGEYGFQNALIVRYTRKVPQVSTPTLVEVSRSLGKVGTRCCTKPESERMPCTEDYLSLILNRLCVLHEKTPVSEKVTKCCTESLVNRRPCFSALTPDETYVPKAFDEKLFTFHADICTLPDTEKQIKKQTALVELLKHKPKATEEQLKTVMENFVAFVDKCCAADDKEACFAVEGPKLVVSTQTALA
protocol.summary: compounds binding labelled BSA control protein – biochemical, small-molecule microarray, Alexa647 label, 635/667 nm fluorescence, artefact control for SMM control protein annotation, profiling panel (AID 1118);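 note: score merges 667 nm emission intensity and signal-to-noise per printed compound spot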
assay.conditions: BSA-A647 binding, fluorescence 635 nm, higher = more signal
Each entry below lists one item and its recorded composite z-score value.
readout.name: composite z-score

C=C(COC)C(=O)CC[C@H](OC(=O)c1ccccc1-c1ccccc1C(=O)O)c1ccc(CO)o1: -0.701
COc1cccc(C[C@H]2C[C@@H](CO[Si](C(C)C)(C(C)C)C(C)C)N3C(=O)[C@]4(C(C)=O)O[C@]23[C@H]2C(=O)N(C)C(=O)[C@H]24)c1: 0.614
COCCOC(=O)N1C(=O)[C@@]2(c3cc(C#CCC(C(=O)OC)C(=O)OC)ccc31)[C@H](C(=O)N1CCCCCCC1)[C@H]1C(=O)O[C@H](c3ccccc3)[C@H](c3ccccc3)N1[C@@H]2c1ccc(O)cc1: -0.0345
COc1cc2c(cc1OC)CN(C(=O)[C@@H]1[C@H]3C(=O)O[C@H](c4ccccc4)[C@H](c4ccccc4)N3[C@H](c3ccc(O)cc3)[C@@]13C(=O)Nc1ccc(C#CCNC(N)=O)cc13)CC2: 0.0738

====

target.or.system: Alpha-bungarotoxin (Bungarus multicinctus)
protocol.summary: compounds binding labelled alpha-BTX control protein – biochemical, small-molecule microarray, Alexa647 label, 635/667 nm fluorescence, artefact control for SMM control protein annotation, profiling panel (AID 1117)
assay.conditions: alpha-BTX-A647 binding fluorescence, higher = more signal
readout.name: composite z-score

CN(C)C(=O)[C@@]1(CCS(=O)(=O)c2ccccc2)N=C(c2ccc(OCCCO)cc2)O[C@H]1c1ccccc1CN=[N+]=[N-]: 1.06
O=C1OCC=C[C@H]2OC34C=CCN(CCN5CCOCC5)C(=O)[C@H]3N(CCCCCO)C(=O)[C@@H]4[C@@H]12 (some centres not stated): 0.396
Cc1ccc(S[C@]2(C(=O)NCc3ccccc3)CC(=O)N(C3Cc4ccccc4C3)[C@@H]2c2ccc(CO)cc2I)cc1: 1.3
CC(C)N1CC=CC23O[C@@H]4C=CCOC(=O)[C@@H]4[C@H]2C(=O)N(CCCCCCO)[C@@H]3C1=O (some centres not stated): -0.92
O=C1c2ccccc2C(=O)C2CC([C@H]3Oc4ccccc4S(=O)(=O)N4CCC[C@@H]34)=CCC12 (some centres not stated): 0.0404
CN(C)C(=O)[C@@]1(Cc2ccccc2N=[N+]=[N-])N=C(c2ccc(OCCCO)cc2)O[C@H]1c1ccccc1N=[N+]=[N-]: 1.6
COC(=O)C(CC#Cc1ccc2c(c1)[C@]1(C(=O)N2)[C@H](c2ccc(O)cc2)N2[C@H](c3ccccc3)[C@H](c3ccccc3)OC(=O)[C@H]2[C@@H]1C(N)=O)C(=O)OC: -1.83

====

System: Human papillomavirus type 1a E7 protein (residues 1-88)
protocol.summary: HPV1a E7 small-molecule binders, primary screen, biochemical, small-molecule microarray, residues 1-88, 635 nm (AID 1129)
assay.conditions: small-molecule microarray binding, fluorescence 635 nm; higher = more signal
readout.name: composite z-score

CN(C)CCCN1C(=O)[C@@]2(Cc3ccccc31)c1ccccc1C(=O)N(Cc1ccccc1)[C@H]2c1ccc(CO)cc1: -0.153
CCCC[C@@H](O)C1=C(COc2ccccc2)Cn2c(=O)n(-c3ccccc3)c(=O)n2[C@H]1CO: -0.476
C=C(COC)/C(=C/C[C@@H](OC(=O)c1ccncc1)c1cccc(OCCO)c1)c1cc(C(=O)OC)ccc1OC: 0.942
CC(C)NC(=O)[C@@H]1c2ccccc2C(=O)N(Cc2cc(C(F)(F)F)cc(C(F)(F)F)c2)[C@H]1c1ccc(CO)cc1: 1.16

====

protocol.summary: probe aLAP1 signal on lysate-treated microarray – cell lysate, small-molecule microarray, COS7 lysate, primary screen (AID 1124);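 note: lysate comes from COS7 cells expressing LAP1 and is applied at 0.3 µg/mL; score merges spot fluorescence near 667 nm with signal-to-noise over triplicate slides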
assay.conditions: probe aLAP1, fluorescence, higher = more signal
Below: a set of entries, each annotated with reported composite z-score.
readout.name: composite z-score

COc1ccc([Si](C)(C)[C@@H]2[C@@H](CCO)O[C@]3(C(=O)N(Cc4ccccc4)c4ccc(N5C(=O)COc6ccccc65)cc43)[C@H]2C)cc1: 0.719
C=CC[C@]1(C(=O)N2CCOCC2)N=C(c2ccc(OCCCO)cc2)O[C@H]1c1ccccc1CN=[N+]=[N-]: 1.64
C=CC[C@@]1(C(=O)NCCN2CCOCC2)N=C(c2ccc(OCCCO)cc2)O[C@@H]1c1ccccc1: 0.871
NC(=O)[C@H]1[C@@H]2C(=O)O[C@@H](c3ccccc3)[C@@H](c3ccccc3)N2[C@@H](c2ccc(O)cc2)[C@]12C(=O)Nc1ccc(C#CC3(O)CCCCCC3)cc12: 0.807
[N-]=[N+]=NCc1ccccc1C[C@]1(C(=O)NCCN2CCOCC2)COC(c2ccc(OCCCO)cc2)=N1: 1.47

====

protocol.summary: blood-stage malaria parasite viability loss – strain 3D7, DAPI fluorescence, 100 nL, primary screen (AID 1184);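 note: parasites grown inside human red blood cells in medium with human serum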
assay.conditions: P. falciparum 3D7 growth, 3 d, higher = more signal
Classes based on z-score: lower: < -2; middle: ≥ -2 and < -0.3; upper: ≥ -0.3

CCCc1cc2c(n1Cc1ccc(OC)cc1)C(C)C1CN(C(=O)c3ccccc3)C(C)(C(=O)OC)C21 (centres undefined): middle
COc1ccc(C(=O)Nc2ccc(CN3C(=O)[C@]4(O[C@H](CCn5cc([C@H](O)c6ccccc6)nn5)[C@@H]([Si](C)(C)c5ccc(OC)cc5)[C@@H]4C)c4ccccc43)cc2)cc1: lower
O=C1c2ccccc2[C@](Cc2ccccc2I)(C(=O)NC2CC2)[C@H](c2ccc(CO)cc2)N1Cc1ccccc1Cl: middle
C=CCOC(=O)[C@H]1[C@@H]2C(=O)O[C@@H](c3ccccc3)[C@@H](c3ccccc3)N2[C@@H](c2ccc(OCCOC(=O)[C@H]3C[C@H]4C(=O)N[C@@H](CCCCN(C)C)C(=O)N4[C@H]3c3ccc(O)cc3)cc2)[C@]12C(=O)Nc1ccccc12: upper
O=C1O[C@H](c2ccccc2)[C@H](c2ccccc2)N2[C@H]1[C@@H](C(=O)N1CCCCCCC1)[C@]1(C(=O)Nc3ccccc31)[C@H]2c1ccc(O)cc1: upper
CN(C)CCCN1C(=O)[C@@]2(Cc3ccccc31)c1ccccc1C(=O)N(Cc1ccccc1)[C@H]2c1ccc(CO)cc1: middle
COC(=O)C(CC#Cc1ccc2c(c1)[C@]1(C(=O)N2)[C@H](c2ccc(O)cc2)N2[C@H](c3ccccc3)[C@H](c3ccccc3)OC(=O)[C@H]2[C@@H]1C(N)=O)C(=O)OC: upper
C=CC[C@]1(C(=O)NCC(O)CO)N=C(c2ccc(OCCCO)cc2)O[C@H]1c1ccccc1N=[N+]=[N-] (some centres undefined): lower
O=C1N(Cc2ccccc2)c2ccccc2[C@H]2OC(c3ccc(OCCCO)cc3)=N[C@@]12CCS(=O)(=O)c1ccccc1: lower
COC(=O)[C@@]1(Cc2ccc(OC)cc2)[C@H]2c3cc(C(=O)N(C)C)n(CCF)c3C[C@H]2CN1C(=O)c1ccccc1: middle
[N-]=[N+]=Nc1ccccc1[C@H]1OC(c2ccc(OCCCO)cc2)=N[C@@]1(Cc1ccccc1)C(=O)NCc1ccccc1: lower
COc1ccccc1CN1C(=O)c2ccccc2[C@@]2(Cc3ccccc3N(C3CC3)C2=O)[C@@H]1c1ccc(CO)cc1: upper
CC1(C)[C@@H]2CC(C(O)C3C=CC4C(=O)N(c5ccccc5)C(=O)C4N3Nc3ccccc3F)=C[C@@H]1C2 (some centres undefined): middle
COC(=O)C(CC#Cc1ccc2c(c1)[C@]1(C(=O)N2)[C@H](C(=O)N2CCc3cc(OC)c(OC)cc3C2)[C@H]2C(=O)O[C@H](c3ccccc3)[C@H](c3ccccc3)N2[C@@H]1c1ccc(OCCO)cc1)C(=O)OC: middle
C=CC[C@]1(C(=O)N2CCOCC2)N=C(c2ccc(OCCCO)cc2)O[C@H]1c1ccccc1CN=[N+]=[N-]: lower
COCCOC(=O)N1C(=O)[C@@]2(c3cc(C#CCNC(N)=O)ccc31)[C@H](c1ccc(OCCO)cc1)N1[C@H](c3ccccc3)[C@H](c3ccccc3)OC(=O)[C@H]1[C@@H]2C(=O)N1CCN(c2ncccn2)CC1: middle
C[C@]12C(=O)N(CCCO)[C@@H]3C(=O)N(c4ccc(Cl)cc4)CC=CC31O[C@@H]1/C=C\CCCOC(=O)C12 (some centres undefined): upper
O=C(C=C(CC(O)c1cccc(Cl)c1)OCCF)OCCF (centres undefined): upper
CC(C)C[C@@H]1NC(=O)[C@@H]2C[C@H](C(=O)NCc3ccc(F)cc3)[C@H](c3ccc(O)cc3)N2C1=O: middle
[N-]=[N+]=Nc1ccccc1[C@@H]1OC(c2ccc(OCCCO)cc2)=N[C@]1(CCS(=O)(=O)c1ccccc1)C(=O)NCc1ccccc1: lower
C=C(COC)C(=O)CC[C@H](OC(=O)c1ccccc1-c1ccccc1C(=O)O)c1ccc(OCCO)cc1: middle
COc1ccc(CCNC(=O)[C@@H]2c3ccccc3C(=O)N(Cc3ccccc3)[C@H]2c2ccc(CO)cc2)cc1: middle
CCCCCCCCCCC(O)C1C=CC2C(=O)NC(=O)C2N1Nc1ccccn1 (centres undefined): upper
COc1cccc(C[C@H]2C[C@@H](CO[Si](C(C)C)(C(C)C)C(C)C)N3C(=O)[C@]4(C(C)=O)O[C@]23[C@H]2C(=O)N(C)C(=O)[C@H]24)c1: upper

Values compiled from PubChem BioAssay.
